These data points were gathered from ChEMBL document CHEMBL1201862.

# Test system: MDA-MB-435
# method-notes: NCI tumour cell line growth inhibition, 48 h
Activity calls are given as the source filed them. No stated cut-off is given here; in the data, active = GI50 up to about 1.1 µM and inactive = higher.
Your answer must be one of the following: true for active, false for inactive

Worked set:
O=c1[nH]nc(-c2ccccc2)c2[nH]c3c4ccccc4ccc3c12 | true
O=C1C=CC(=O)c2c1ccc1c3ccccc3n(-c3ccccc3[N+](=O)[O-])c21 | false
CCOC(=O)N1CC2(C(=O)OC)C=CC1C(C(=O)OC)C2 (stereo not given) | false
C/C(=C\COP(=O)(O)OP(=O)(O)O)CCCCCCOCc1ccccc1 | false
Cc1cc2c(s1)C(=O)c1sccc1C2=O | true
O=C(Nc1cnc(O)nc1O)Oc1ccccc1 | false

In the following, a different compound is considered.
Which outcome was entered for the compound O=C1C=CC(=O)c2c1ccc1c3ccccc3n(CCCCCCCCCCCCn3c4ccccc4c4ccc5c(c43)C(=O)C=CC5=O)c21 in this test?
false
